assay: Stability: test compounds heated at 100° C. for 8 hours; format: physicochemical; settings: heated at 100° C. for 8 hours; 480 min
MEASUREMENT_TYPE: Percent remainder (%)
Field format: number, assumed %, no unit text.

MOLECULE	Percent remainder (%)
CCCc1c2[n+](cc3c(OC)c(OC)ccc13)CCc1cc3c(cc1-2)OCO3 [13-Propylberberine bisulfate, 13-propylberberine bisulfate]	100.0
CCCc1c2[n+](cc3c(OC)c(OC)ccc13)CCc1cc3c(cc1-2)OCO3 [13-Propylberberine iodide, reference compound]	52.1
CCCc1c2[n+](cc3c(OC)c(OC)ccc13)CCc1cc3c(cc1-2)OCO3 [13-Propylberberine chloride, reference compound]	48.7
CCCc1c2[n+](cc3c(OC)c(OC)ccc13)CCc1cc3c(cc1-2)OCO3 [13-Propylberberine bromide, 13-propylberberine bromide, reference compound]	57.0

Consider the additional molecule presented here.
Challenge: Can you look up the measured Percent remainder (%) of CCCc1c2[n+](cc3c(OC)c(OC)ccc13)CCc1cc3c(cc1-2)OCO3 [13-Propylberberine primary phosphate, 13-propylberberine primary phosphate] for me?
Response given: 99.8
